target: NTT1ΔC (Arabidopsis thaliana, UniProt Q39002); construct: gene AATP1; mature form (first 79 residues removed) with last 41 residues deleted (deletion borders computed from a recalled length of 624); tagged; E. coli; purified in LAPAO; partly aggregated; test: tryptophan fluorescence variation, two-site fit; type: binding; conditions: 20 mM Tris pH 8, 10 mM NaCl, 0.1% LAPAO, 25°C; stronger site of two-site fit; read-out: Affinity for ATP
Sequence (Q39002 80-583, stated change not applied): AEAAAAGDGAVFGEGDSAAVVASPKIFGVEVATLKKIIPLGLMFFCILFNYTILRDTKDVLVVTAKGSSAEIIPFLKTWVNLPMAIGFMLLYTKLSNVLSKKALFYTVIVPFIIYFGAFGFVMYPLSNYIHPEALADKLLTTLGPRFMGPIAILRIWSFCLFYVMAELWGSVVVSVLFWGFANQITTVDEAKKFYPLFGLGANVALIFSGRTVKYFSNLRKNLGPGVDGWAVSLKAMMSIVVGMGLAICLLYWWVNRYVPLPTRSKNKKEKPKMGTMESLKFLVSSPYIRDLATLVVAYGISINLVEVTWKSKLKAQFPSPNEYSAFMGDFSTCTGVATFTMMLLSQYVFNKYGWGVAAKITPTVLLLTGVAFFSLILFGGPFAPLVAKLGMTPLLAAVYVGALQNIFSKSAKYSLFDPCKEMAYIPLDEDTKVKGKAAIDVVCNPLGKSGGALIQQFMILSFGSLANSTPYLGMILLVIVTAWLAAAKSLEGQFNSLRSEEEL
Endpoint: pKd
// pKd here means minus log10 of the molar concentration (mol/L)

**Q:** What does the record list as pKd for Nc1ncnc2c1ncn2[C@@H]1O[C@H](COP(=O)(O)OP(=O)(O)OP(=O)(O)O)[C@@H](O)[C@H]1O [ATP] ?
**A:** 6.15
